Quick reference: FACS signal of the listed items.
- TGT: T1, human CLDN6, endogenously expressed on cancer cell lines (human, UniProt P56747 1-220)
- T1 construct: also called Endogenous CLDN6+; CLDN6 on ARK2, OVCA429, UMUC4 cells
- T1 sequence: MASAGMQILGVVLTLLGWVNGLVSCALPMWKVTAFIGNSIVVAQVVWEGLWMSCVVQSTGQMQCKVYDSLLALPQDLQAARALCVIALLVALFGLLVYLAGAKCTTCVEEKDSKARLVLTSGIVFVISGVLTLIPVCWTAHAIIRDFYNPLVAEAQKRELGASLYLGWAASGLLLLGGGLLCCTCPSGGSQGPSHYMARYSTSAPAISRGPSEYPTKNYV
- ASSAY_PROCEDURE: FACS, ARK2 cells, 0.3 ug Ab

AB1-4 (antibody, V domains shown, Humanized; also called humanized AB 1-4) VH: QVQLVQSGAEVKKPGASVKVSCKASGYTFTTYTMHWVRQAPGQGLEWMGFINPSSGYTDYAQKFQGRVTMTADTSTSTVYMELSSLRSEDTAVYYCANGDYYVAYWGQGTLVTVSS VL: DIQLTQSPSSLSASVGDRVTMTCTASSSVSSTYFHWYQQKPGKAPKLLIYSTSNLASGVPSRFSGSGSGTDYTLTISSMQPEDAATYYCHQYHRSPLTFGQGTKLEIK    3640
AB9-chim (antibody, V domains shown, Parental antibody prior to humanization ('chim'); also called pre-humanized form of AB9) VH: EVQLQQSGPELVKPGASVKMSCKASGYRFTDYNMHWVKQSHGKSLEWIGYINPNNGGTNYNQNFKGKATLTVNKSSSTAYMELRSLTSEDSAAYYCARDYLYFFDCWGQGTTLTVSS VL: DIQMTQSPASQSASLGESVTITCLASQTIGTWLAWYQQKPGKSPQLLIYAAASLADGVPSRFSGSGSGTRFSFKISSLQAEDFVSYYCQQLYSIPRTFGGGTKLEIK    3510

Continue with the binder presented below.
QUERY: Consider the binder AB11-chim (antibody, V domains shown, Parental antibody prior to humanization ('chim'); also called pre-humanized form of AB11) VH: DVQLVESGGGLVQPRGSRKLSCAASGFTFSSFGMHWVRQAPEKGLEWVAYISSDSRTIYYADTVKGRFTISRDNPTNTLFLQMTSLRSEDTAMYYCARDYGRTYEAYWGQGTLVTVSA VL: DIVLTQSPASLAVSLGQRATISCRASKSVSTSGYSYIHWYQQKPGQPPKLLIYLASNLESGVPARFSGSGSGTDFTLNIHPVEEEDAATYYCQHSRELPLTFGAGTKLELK and give its recorded FACS signal.
RESULT: 1320
